# Target or system: human CB2 receptors (Homo sapiens, UniProt P34972)
# Construct: expressed in transfected cells; host or cells: CHO cells
# Sequence (P34972 whole entry): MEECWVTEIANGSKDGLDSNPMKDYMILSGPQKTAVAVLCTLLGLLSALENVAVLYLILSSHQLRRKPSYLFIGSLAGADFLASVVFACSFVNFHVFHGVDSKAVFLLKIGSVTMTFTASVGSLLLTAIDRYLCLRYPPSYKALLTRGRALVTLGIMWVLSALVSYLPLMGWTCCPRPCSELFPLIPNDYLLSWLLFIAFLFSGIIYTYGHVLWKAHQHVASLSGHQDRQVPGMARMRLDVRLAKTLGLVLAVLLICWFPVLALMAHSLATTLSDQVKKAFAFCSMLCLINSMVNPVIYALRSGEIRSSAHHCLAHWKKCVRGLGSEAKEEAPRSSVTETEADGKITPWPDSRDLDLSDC
# Measurement protocol: cAMP assay, human CB2
# Assay type: cell-based
# Condition description: functional cAMP assay, CHO cells expressing human CB2; read-out: Ec50: CB2 - hu cAMP
Catalogue of compounds with associated EC50
Measured parameter: EC50

compound=O=C(CN1CCN(C(=O)n2nnn(-c3ccc(Cl)cc3)c2=O)CC1)N1CCOCC1 target_or_system="human CB2 receptors (Homo sapiens, UniProt P34972)" test_value="42.8 nM"
compound="CCN(C(C)=O)C1CCN(C(=O)n2nnn(-c3ccc(Cl)cc3)c2=O)C1 (centres unmarked)" target_or_system="human CB2 receptors (Homo sapiens, UniProt P34972)" test_value="10.8 nM"
compound="NC(=O)C1CCCN(C(=O)n2nnn(-c3cccc(F)c3)c2=O)C1 (centres unmarked)" target_or_system="human CB2 receptors (Homo sapiens, UniProt P34972)" test_value="15.9 nM"
compound=CC(=O)N[C@@H]1CCN(C(=O)n2nnn(-c3cccc(OC(F)(F)F)c3)c2=O)C1 target_or_system="human CB2 receptors (Homo sapiens, UniProt P34972)" test_value="20.4 nM"
compound=CN(C(=O)n1nnn(-c2cccc(F)c2)c1=O)c1ccccn1 target_or_system="human CB2 receptors (Homo sapiens, UniProt P34972)" test_value="152 nM"

====

# Target or system: human CB2 receptors (Homo sapiens, UniProt P34972)
# Construct: expressed in transfected cells; host or cells: CHO cells
# Measurement protocol: cAMP assay, human CB2
# Assay type: cell-based
# Condition description: functional cAMP assay, CHO cells expressing human CB2; read-out: Ec50: CB2 - hu cAMP
Catalogue of molecules with associated EC50
Measured parameter: EC50 (nM)

molecule=CCOC(=O)Cn1nnn(-c2cccc(Cl)c2)c1=O target_or_system="human CB2 receptors (Homo sapiens, UniProt P34972)" measured_parameter=EC50 test_value=1990
molecule="CC(=O)N(C)C1CCN(C(=O)n2nnn(-c3cccc(F)c3)c2=O)C1 (stereo not shown)" target_or_system="human CB2 receptors (Homo sapiens, UniProt P34972)" measured_parameter=EC50 test_value=14.3
molecule="Cc1cc(C2CCCN2C(=O)n2nnn(-c3ccc(Cl)cc3)c2=O)on1 (stereo not shown)" target_or_system="human CB2 receptors (Homo sapiens, UniProt P34972)" measured_parameter=EC50 test_value=7.4
molecule=O=C(CN1CCN(C(=O)n2nnn(-c3cccc(Cl)c3)c2=O)CC1)N1CCOCC1 target_or_system="human CB2 receptors (Homo sapiens, UniProt P34972)" measured_parameter=EC50 test_value=16.9
molecule="O=C(N1CCC(c2ccccc2)C1)n1nnn(-c2cccc(F)c2)c1=O (stereo not shown)" target_or_system="human CB2 receptors (Homo sapiens, UniProt P34972)" measured_parameter=EC50 test_value=3.2
molecule="Cn1nccc1C1CCCN1C(=O)n1nnn(-c2cccc(F)c2)c1=O (stereo not shown)" target_or_system="human CB2 receptors (Homo sapiens, UniProt P34972)" measured_parameter=EC50 test_value=219
molecule=COCCN(C(=O)n1nnn(-c2cccc(OC(F)(F)F)c2)c1=O)C(C)C target_or_system="human CB2 receptors (Homo sapiens, UniProt P34972)" measured_parameter=EC50 test_value=9.5
molecule=CC1(C)CCN(C(=O)n2nnn(-c3ccc(Cl)cc3)c2=O)CC1 target_or_system="human CB2 receptors (Homo sapiens, UniProt P34972)" measured_parameter=EC50 test_value=0.9
molecule=CC(=O)N[C@H]1CCN(C(=O)n2nnn(-c3cccc(OC(F)(F)F)c3)c2=O)C1 target_or_system="human CB2 receptors (Homo sapiens, UniProt P34972)" measured_parameter=EC50 test_value=18.2
molecule=CN(C(=O)n1nnn(-c2cccc(F)c2)c1=O)c1cccnc1 target_or_system="human CB2 receptors (Homo sapiens, UniProt P34972)" measured_parameter=EC50 test_value=25
molecule="O=C(N1CCCC1Cc1ccccc1)n1nnn(-c2cccc(F)c2)c1=O (stereo not shown)" target_or_system="human CB2 receptors (Homo sapiens, UniProt P34972)" measured_parameter=EC50 test_value=4.1
molecule=COc1ccc(-n2nnn(C(=O)N3CCOCC3)c2=O)cc1 target_or_system="human CB2 receptors (Homo sapiens, UniProt P34972)" measured_parameter=EC50 test_value=6.7
molecule=CN(C)C(=O)CN1CCN(C(=O)n2nnn(-c3cccc(Cl)c3)c2=O)CC1 target_or_system="human CB2 receptors (Homo sapiens, UniProt P34972)" measured_parameter=EC50 test_value=16.4
molecule=N#C[C@H]1CCCN1C(=O)n1nnn(-c2cccc(F)c2)c1=O target_or_system="human CB2 receptors (Homo sapiens, UniProt P34972)" measured_parameter=EC50 test_value=129
molecule=O=C(N1CCC(F)(F)C1)n1nnn(-c2cccc(F)c2)c1=O target_or_system="human CB2 receptors (Homo sapiens, UniProt P34972)" measured_parameter=EC50 test_value=797
molecule=COc1cccc(-n2nnn(C(=O)N3CCOCC3)c2=O)c1 target_or_system="human CB2 receptors (Homo sapiens, UniProt P34972)" measured_parameter=EC50 test_value=9.1
molecule="O=C(N1CCCC1c1ccc(F)cc1)n1nnn(-c2cccc(F)c2)c1=O (stereo not shown)" target_or_system="human CB2 receptors (Homo sapiens, UniProt P34972)" measured_parameter=EC50 test_value=5.9
molecule=COCCN(C)C(=O)n1nnn(-c2cccc(F)c2)c1=O target_or_system="human CB2 receptors (Homo sapiens, UniProt P34972)" measured_parameter=EC50 test_value=1.3
molecule="CC(C(=O)N1CCCC1)N1CCN(C(=O)n2nnn(-c3cccc(Cl)c3)c2=O)CC1 (stereo not shown)" target_or_system="human CB2 receptors (Homo sapiens, UniProt P34972)" measured_parameter=EC50 test_value=122

====

Catalogue of compounds with associated EC50
# Target or system: human CB2 receptors (Homo sapiens, UniProt P34972)
# Construct: expressed in transfected cells; host or cells: CHO cells
# Measurement protocol: cAMP assay, human CB2
# Assay type: cell-based
# Condition description: functional cAMP assay, CHO cells expressing human CB2; read-out: Ec50: CB2 - hu cAMP
# Description: CHO cells expressing human CB1 or CB2 receptors are seeded 17-24 hours prior to the experiment 50.000 cells per well in a black 96 well plate with flat clear bottom (Corning Costar #3904) in DMEM (Invitrogen No. 31331), lx HT supplement, with 10% fetal calf serum and incubated at 5% CO2 and 37° C. in a humidified incubator. […] The time-resolved energy transfer is measured by a TRF reader (Evotec Technologies GmbH), equipped with a ND:YAG laser as excitation source. […]
Measured parameter: EC50 (nM)

compound=CCOCCN(CC)C(=O)n1nnn(-c2cccc(OC(F)(F)F)c2)c1=O units_text=nM test_value=12.5
compound=COc1ccc(CCN(C)C(=O)n2nnn(-c3cccc(F)c3)c2=O)cc1OC units_text=nM test_value=0.6
compound=C[C@@H]1CN(C(=O)n2nnn(-c3cccc(Cl)c3)c2=O)C[C@H](C)O1 units_text=nM test_value=507
compound=O=C(N1CCOCC1)n1nnn(-c2cccc(Br)c2)c1=O units_text=nM test_value=7
compound="CC1CN(C(=O)n2nnn(-c3cccc(Cl)c3)c2=O)CC(C)O1 (stereo not drawn)" units_text=nM test_value=130
compound=CN(CCC#N)C(=O)n1nnn(-c2cccc(F)c2)c1=O units_text=nM test_value=11.5
compound="Cc1cc(C2CCCN2C(=O)n2nnn(-c3cccc(F)c3)c2=O)on1 (stereo not drawn)" units_text=nM test_value=6.9
compound=CN(CCCc1ccccc1)C(=O)n1nnn(-c2cccc(F)c2)c1=O units_text=nM test_value=1.2
compound=O=C(N1CCS(=O)(=O)CC1)n1nnn(-c2cccc(F)c2)c1=O units_text=nM test_value=41.6

====

Catalogue of compounds with associated pEC50
# Target or system: human CB2 receptors (Homo sapiens)
# Construct: expressed in transfected cells; host or cells: CHO cells
# Measurement protocol: cAMP assay, human CB2
# Format: cell-based
# Condition description: functional cAMP assay, CHO cells expressing human CB2; read-out: Ec50: CB2 - hu cAMP
pEC50: −log10 of the molar value.
Measured parameter: pEC50

compound=CC1(C)CCCN(C(=O)n2nnn(-c3cccc(F)c3)c2=O)C1 test_value=8.74
compound=COCCN(CCOC)C(=O)n1nnn(-c2cccc(F)c2)c1=O test_value=8.07
compound=CN(C)C(=O)CN1CCN(C(=O)n2nnn(-c3cccc(OC(F)(F)F)c3)c2=O)CC1 test_value=7.62
compound=CC1(C)CCN(C(=O)n2nnn(-c3cccc(Cl)c3)c2=O)C1 test_value=8.30
compound=CCCn1nnn(C(=O)N(C)c2cccnc2)c1=O test_value=6.06
compound=COCCCN(C)C(=O)n1nnn(-c2ccc(Cl)cc2)c1=O test_value=8.72
compound=CC[C@H](C)[C@@H](C(=O)OC)N(C)C(=O)n1nnn(-c2cccc(F)c2)c1=O test_value=7.95
compound=O=C(N1CCc2cc(F)ccc2C1)n1nnn(-c2cccc(F)c2)c1=O test_value=7.10
compound=CC(C)Cn1nnn(C(=O)N(C)c2cccnc2)c1=O test_value=6.39
compound=Cn1ccc2ccc(-n3nnn(C(=O)N4CCOCC4)c3=O)cc21 test_value=8.10
compound=O=C(N1CCN(c2cnccn2)CC1)n1nnn(-c2cccc(F)c2)c1=O test_value=6.69
compound=CCNC(=O)CN1CCN(C(=O)n2nnn(-c3cccc(OC(F)(F)F)c3)c2=O)CC1 test_value=7.70
compound=O=C(CN1CCN(C(=O)n2nnn(-c3cccc(Cl)c3)c2=O)CC1)N1CCCC1 test_value=8.33
compound=COCCN(C(=O)n1nnn(-c2cccc(F)c2)c1=O)C(C)C test_value=8.39
compound=CCN(Cc1ccncc1)C(=O)n1nnn(-c2cccc(F)c2)c1=O test_value=9.10
compound="CC(C(=O)N1CCCC1)N1CCN(C(=O)n2nnn(-c3ccc(Cl)cc3)c2=O)CC1 (stereo not shown)" test_value=6.94
compound=O=C(N1CCOCC1)n1nnn(-c2ccc(Cl)cc2)c1=O test_value=8.35
compound="CCN(C(C)=O)C1CCN(C(=O)n2nnn(-c3cccc(F)c3)c2=O)C1 (stereo not shown)" test_value=7.86
compound=Cn1ccc2cc(-n3nnn(C(=O)N4CCOCC4)c3=O)ccc21 test_value=7.74
compound=O=C(N1CCOCC1)n1nnn(-c2cccc(Cl)c2)c1=O test_value=8.49
compound=Cn1c(Cn2nnn(-c3cccc(F)c3)c2=O)nnc1S(C)(=O)=O test_value=6.05
compound=Cc1ccc(-n2nnn(C(=O)N3CCOCC3)c2=O)cc1 test_value=8.18
compound=CC1(C)CCCN1C(=O)n1nnn(-c2cccc(F)c2)c1=O test_value=7.04
compound=CCN(CC)C(=O)N1CCN(C(=O)n2nnn(-c3cccc(F)c3)c2=O)CC1 test_value=7.28
compound=N#CCCN(C(=O)n1nnn(-c2cccc(F)c2)c1=O)C1CC1 test_value=6.78
compound=CC(=O)N[C@H]1CCN(C(=O)n2nnn(-c3cccc(F)c3)c2=O)C1 test_value=7.04
compound=O=C(N1CCOCC1)n1nnn(-c2cccc(F)c2)c1=O test_value=8.52
compound=O=C(N1CCOCC1)n1nnn(-c2ccc(C(F)(F)F)cc2)c1=O test_value=7.80
compound=CC1(C)CCN(C(=O)n2nnn(-c3cccc(F)c3)c2=O)C1 test_value=8.57
compound=O=C(N1CCOCC1)n1nnn(-c2cc(F)ccc2F)c1=O test_value=7.72
compound=CC(=O)N[C@@H]1CCN(C(=O)n2nnn(-c3ccc(Cl)cc3)c2=O)C1 test_value=7.84
compound=CCCCNC(=O)CN1CCN(C(=O)n2nnn(-c3ccc(Cl)cc3)c2=O)CC1 test_value=8.38
compound=CCOC(=O)N1CCN(C(=O)n2nnn(-c3cccc(F)c3)c2=O)CC1 test_value=6.25
compound="CCN(C(C)=O)C1CCN(C(=O)n2nnn(-c3cccc(Cl)c3)c2=O)C1 (stereo not shown)" test_value=7.78
compound=COC[C@@H]1CCCN1C(=O)n1nnn(-c2cccc(F)c2)c1=O test_value=7.01
compound=O=C(N1CCOCC1)n1nnn(-c2cccc(Cl)c2Cl)c1=O test_value=7.80
compound="Cc1noc(C2CCCN2C(=O)n2nnn(-c3cccc(F)c3)c2=O)n1 (stereo not shown)" test_value=7.59
